# System: MS2 coat protein
# assay comment: apparent Kd, MS2 coat protein; higher = weaker binding; RNA-MaP array
# condition label: ligand present: flavin mononucleotide; designed as: OFF switch for flavin mononucleotide
Binning scheme for apparent Kd: low range = under 10 nM, mid range = from 10 nM up to 100 nM, high range = 100 nM and over

Example results:
GGUAGUACCGUAGGAUAUUCCGCUUACAUGAGGAUCACCCAUGUGGCUGGUAUUUCGUCAAAGAAGAAGAAGGACGUCUGCGCG    low range
CUCUUGCGGUUAGGAUAUUCCCUUGAAAACAAUGAAGAAGGAACCAGAUGAUCACAUGUCCUACAUGAGGAUCACCCAUGUUAA    high range
ACUCUAAGAUGAGGAUAUCACAUCUUAUCGCCACGGUGGCUUCACAUGAGGAUCACCCAUGUAUGUGAGAAGGCAUUUCCGGAC    mid range
CGCUGCCGAAGAGGAUAUCCCACGACCCAAACUGGAGAAGGCUUUAGGUUUUGCCGACAUGAGGAUCACCCAUGUGUCAGUGCA    mid range
GUUAUCUCAUGUUCGACGGACAUGAGGAUCACCCAUGUACCUUAGGAUAUUGAUGAAAUAUGGCGCAAGAAGGAAGGUAACGCU    low range

Q) Which band does UUCGCCACGCAAGGAUAUGAUACUUAUUGCUGUUCAGAAGGUGCGACAUGAGGAUCACCCAUGUGGUGUGUCCAGGGAGGCUAG fall in?
A) high range

Q) Dear colleague, I would appreciate it if you could identify the bin for UACAUGAACGUCAGGAUAUUGGUAUAUUACCUAGCCAAGAAGGGACAUGAGGAUCACCCAUGUAUUCGGUCCAA and reply at your convenience.
A) mid range

Q) Where would AUCGACAAAGGAUAUGAUGCGAAUGACAUGAGGAUCACCCAUGUGGAGCCAAGUGUCCCGUCAGAAGGUUGUACGU land among the classes by reported apparent Kd?
A) high range

Q) Hi there! Could you help me figure out the category for AAACUAUGAGGAUAUACAUGAGGAUCACCCAUGUCGGUACUGGUAUGGCCCUGAUCCCGUAGAAGGCAUCGGUC please?
A) high range

Q) Determine which band this sequence sits in: UAUGCGUUUUCAGGAUAUGCACACAUGAGGAUCACCCAUGUAGGUCUGCGGCGGCAUCCUCCUUUGCAGAAGGGAAUCGCGCUU
A) mid range
